Provenance of the data: ChEMBL document CHEMBL1127424

system: Klebsiella pneumoniae; test: In vitro minimum inhibitory concentration to inhibit Klebsiella pneumoniae ATCC 10031; assay type: functional
measurement-kind: MIC (µg/mL)
Write the answer as a number in µg/mL, unit excluded.

See these solved cases before continuing.
chemical-string	measurement-kind	units-text	experimental-result
C[C@H]1[C@H](N)CN1c1c(F)cc2c(=O)c3c(=O)[nH]sc3n(C3CC3)c2c1F	MIC	µg/mL	0.03
C[C@H]1N(c2cc3c(cc2F)c(=O)c(C(=O)O)cn3C2CC2)C[C@]1(C)O	MIC	µg/mL	0.12

Return MIC for the following molecule: C[C@H]1N(c2c(F)cc3c(=O)c(C(=O)O)cn(C4CC4)c3c2F)C[C@]1(C)O 0.015

Consider the molecule CC[C@H]1[C@@H](N)CN1c1c(F)cc2c(=O)c(C(=O)O)cn(C3CC3)c2c1F . State its measured MIC. 0.015

Indicate the recorded MIC value for this molecule: C[C@H]1[C@@H](N)CN1c1cc2c(cc1F)c(=O)c(C(=O)O)cn2C1CC1 0.03

# return recorded MIC for entry CC[C@H]1[C@@H](O)CN1c1c(F)cc2c(=O)c(C(=O)O)cn(C3CC3)c2c1F 0.5

###

In this section, each of the compounds is paired with its reported Log k'.
assay: HPLC capacity factor (k'); type: ADME
The answer should be a number; do not append a unit.

compound	Log k'
CNC1(C)CN(c2cc3c(cc2F)c(=O)c(C(=O)O)cn3C2CC2)C1	0.0875
C[C@H]1[C@H](N)CN1c1nc2c(cc1F)c(=O)c(C(=O)O)cn2C1CC1	-0.0304
C[C@H]1[C@H](N)CN1c1c(F)c(N)c2c(=O)c(C(=O)O)cn(C3CC3)c2c1F	0.0828

Please report the measured Log k' for C[C@H]1[C@H](N)CN1c1cc2c(cc1F)c(=O)c(C(=O)O)cn2-c1ccc(F)cc1 0.0755

Identify the reported Log k' for the following entry. C[C@H]1[C@H](N)CN1c1nc2c(cc1F)c(=O)c(C(=O)O)cn2-c1ccc(F)cc1 0.0681

Output Log k' of NC1CN(c2c(F)cc3c(=O)c(C(=O)O)cn(C4CC4)c3c2Cl)C1 -0.0264

# return recorded Log k' for entry CNC1(C)CN(c2nc3c(cc2F)c(=O)c(C(=O)O)cn3C(C)(C)C)C1 0.2107

Supply Log k' value. Item: C[C@H]1[C@H](N)CN1c1cc2c(cc1F)c(=O)c(C(=O)O)cn2-c1ccc(F)cc1F [CETEFLOXACIN] 0.1875

###

Measured MIC values are reported for all entries that follow.
test system: Klebsiella pneumoniae; assay: In vitro minimum inhibitory concentration to inhibit Klebsiella pneumoniae ATCC 10031; format: functional
Form entry: value (µg/mL) — number only.

Solved cases below.
molecule	units-text	MIC
C[C@@H]1[C@@H](N(C)C)CN1c1c(F)cc2c(=O)c(C(=O)O)cn(C3CC3)c2c1F	µg/mL	0.06
C[C@H]1[C@H](N)CN1c1cc2c(cc1F)c(=O)c(C(=O)O)cn2CCF	µg/mL	0.12
C[C@H]1[C@H](N)CN1c1c(F)cc2c(=O)c(C(=O)O)cn(CCF)c2c1F	µg/mL	0.03
C[C@H]1[C@@H](O)CN1c1c(F)cc2c(=O)c(C(=O)O)cn(C3CC3)c2c1F	µg/mL	0.015
CCn1cc(C(=O)O)c(=O)c2cc(F)c(N3C[C@@H](N)[C@@H]3C)cc21	µg/mL	0.06
C[C@H]1[C@H](N)CN1c1cc2c(cc1F)c(=O)c(C(=O)O)cn2-c1ccc(F)cc1F [CETEFLOXACIN]	µg/mL	0.015
CCn1cc(C(=O)O)c(=O)c2cc(F)c(N3C[C@@H](N)[C@@H]3C)c(Cl)c21	µg/mL	0.03
CCn1cc(C(=O)O)c(=O)c2cc(F)c(N3C[C@@H](N)[C@@H]3C)c(F)c21	µg/mL	0.015

As a next step, examine the molecule that follows.
Supply recorded MIC for CN[C@H]1CN(c2cc3c(cc2F)c(=O)c(C(=O)O)cn3C2CC2)[C@@H]1C here. 0.03

###

tested on: Morganella morganii; test: In vitro minimum inhibitory concentration for Morganella morganii ATCC 8019; assay type: functional
The label is rule met for MIC below 0.06 µg/mL and rule not met for MIC equal to or exceeding 0.06 µg/mL.

Below, 4 compounds whose answers are already recorded.
chemical-string	target-desc	assigned-label
C[C@@H]1[C@@H](O)CN1c1cc2c(cc1F)c(=O)c(C(=O)O)cn2C1CC1	Morganella morganii	rule not met
C[C@H]1[C@@H](N)CN1c1cc2c(cc1F)c(=O)c(C(=O)O)cn2C1CC1	Morganella morganii	rule met
C[C@H]1[C@@H](O)CN1c1cc2c(cc1F)c(=O)c(C(=O)O)cn2C1CC1	Morganella morganii	rule not met
C[C@H]1[C@H](N)CN1c1c(F)cc2c(=O)c(C(=O)O)cn(C3CC3)c2c1Cl	Morganella morganii	rule met

Given CC1(C)[C@@H](N)CN1c1nc2c(cc1F)c(=O)c(C(=O)O)cn2C1CC1 , is recorded MIC strictly lower than 0.06 µg/mL? rule not met

Lab note: MIC threshold 0.06 µg/mL. Does this compound come in strictly under it? C[C@@H]1[C@@H](CN)CN1c1cc2c(cc1F)c(=O)c(C(=O)O)cn2C1CC1 rule not met

###

test system: Klebsiella pneumoniae; assay: In vitro minimum inhibitory concentration to inhibit Klebsiella pneumoniae ATCC 10031; type: functional
MIC by entry:
Kindly provide the numeric value in µg/mL only, without the unit symbol.

// below: answered compounds
chemical-string	MIC (µg/mL)
C[C@H]1[C@H](N)CN1c1nc2c(cc1F)c(=O)c(C(=O)O)cn2-c1ccc(F)cc1F	0.06
C[C@H]1[C@H](N)CN1c1nc2c(cc1F)c(=O)c(C(=O)O)cn2-c1ccc(F)cc1	0.06

Next up:
State its MIC for this compound: C[C@H]1[C@H](N)CN1c1c(F)cc2c(=O)c(C(=O)O)cn(-c3ccc(F)cc3F)c2c1F 0.06

###

assay: Measured ionization constant (pKa); type: physicochemical; conditions: read-out: pKa1
measurement-kind: pKa
Output spec: single numeric token, no unit.

chemical-string	pKa
C[C@H]1[C@H](N)CN1c1nc2c(cc1F)c(=O)c(C(=O)O)cn2C1CC1	6.26
C[C@H]1[C@H](N)CN1c1c(F)c(N)c2c(=O)c(C(=O)O)cn(C3CC3)c2c1F	6.65
CC[N+](C)(C)C1CN(c2cc3c(cc2F)c(=O)c(C(=O)O)cn3C2CC2)C1	6.46
C[C@@H]1[C@@H](N(C)C)CN1c1c(F)cc2c(=O)c(C(=O)O)cn(C3CC3)c2c1F	6.08
CNC1(C)CN(c2cc3c(cc2F)c(=O)c(C(=O)O)cn3C2CC2)C1	6.47

Output measured pKa for this item: CC1(N)CN(c2cc3c(cc2F)c(=O)c(C(=O)O)cn3C2CC2)C1 6.58

Return value of pKa for input CN(C)C1CN(c2cc3c(cc2F)c(=O)c(C(=O)O)cn3C2CC2)C1 , no commentary. 6.44

Complete the entry with pKa for C[C@H]1[C@H](N)CN1c1c(F)cc2c(=O)c(C(=O)O)cn(C3CC3)c2c1F 6.13

Report measured pKa; entry is C[C@@H]1[C@@H](N(C)C)CN1c1cc2c(cc1F)c(=O)c(C(=O)O)cn2C1CC1 6.29

###

system: Morganella morganii; assay: In vitro minimum inhibitory concentration for Morganella morganii ATCC 8019; type: functional
measurement-kind: log10(MIC) (log10 of the value in µg/mL)
Use the decimal logarithm of MIC (µg/mL).

chemical-string	measurement-kind	experimental-result
C[C@H]1[C@H](N)CN1c1c(F)cc2c(=O)c(C(=O)O)cn(-c3ccc(F)cc3)c2c1F	log10(MIC)	-0.60

Assign log10(MIC) to the following record: C[C@H]1[C@H](N)CN1c1c(F)cc2c(=O)c(C(=O)O)cn(-c3ccc(F)cc3F)c2c1F -0.60

// Input: CC[C@H]1[C@@H](O)CN1c1cc2c(cc1F)c(=O)c(C(=O)O)cn2C1CC1 . Output its log10(MIC) only. 0.00

Supply measured log10(MIC) of C[C@H]1[C@@H](N)CN1c1c(F)cc2c(=O)c(C(=O)O)cn(C3CC3)c2c1F in your reply. -1.92

Give a short answer stating reported log10(MIC) for C[C@@H]1[C@@H](O)CN1c1c(F)cc2c(=O)c(C(=O)O)cn(C3CC3)c2c1F . -0.60

Indicate the recorded log10(MIC) value for this molecule: C[C@H]1[C@H](N)CN1c1nc2c(cc1F)c(=O)c(C(=O)O)cn2C1CC1 -1.52

Answer with reported log10(MIC) of C[C@H]1[C@H](N)CN1c1nc2c(cc1F)c(=O)c(C(=O)O)cn2C(C)(C)C -0.92

Input C[C@H]1[C@H](N)CN1c1nc2c(cc1F)c(=O)c(C(=O)O)cn2CCF , output reported log10(MIC). -1.22
